This collection of values is drawn from PubChem BioAssay (NCI).

Tested on: NCI-H226 lung
Test: NCI tumour cell line growth inhibition, 48 h
Recorded GI50 for the following molecules

// below: answered molecules
{"columns": ["MOLECULE", "GI50"],
 "data": [
  ["NC(=Nc1ccc(N)cc1)C(N)=Nc1ccc(N)cc1", "> 100000 nM"],
  ["CN1CCN(Cc2ccc3c(NNC(=O)c4ccccc4)nc4cc(F)ccc4n23)CC1", "442 nM"],
  ["COc1cccc(C2C3=C(COC3=O)N(CCO)c3cc4c(cc32)OCO4)c1 (configuration not stated)", "23200 nM"],
  ["COc1ccc(Cn2cc3c(c2-c2ccccc2)CCc2cnoc2-3)cc1N", "2240 nM"],
  ["O=C(Nc1cc(Oc2cc(F)c(NC(=O)C3(C(=O)Nc4ccc(F)cc4)CC3)cc2F)ccn1)C1CC1", "2530 nM"],
  ["COc1cc(C2C3=C(COC3=O)N(CCO)c3cc4c(cc32)OCO4)cc(OC)c1O (configuration not stated)", "3720 nM"],
  ["COc1ccc(N(/C=C/C(=O)C(F)(F)F)CC(=O)c2ccc(Cl)cc2)cc1", "16500 nM"],
  ["COc1cc(/C=C/c2cc(/C=C/c3ccc(O)c(OC)c3)n(C(=O)Nc3ccc(Cl)cc3)n2)ccc1O", "2160 nM"]
]}

Indicate its recorded GI50; the molecule in question is O=C(CC(=O)c1cccc(Cl)c1)c1cccc(Cl)c1
2880 nM

Please report the measured GI50 for Cc1cc(Nc2cc(N3CCN(C)CC3)nc(Sc3ccc(NC(=O)C4CC4)cc3)n2)n[nH]1
737 nM

Complete the entry with GI50 for COc1ccc(C2C=C(c3ccc(Cl)cc3)N=C3SC=C(C)N32)c(Br)c1 (configuration not stated)
11400 nM
